Origin of values: paper PMC7460390

Exercise: for every item that follows, state its recorded CC50 at 24 h.
experimentalDetails: Cell viability, MTT assay, with LPS treatment
Type: cell-based, murine
experimentalConditions: mouse, RAW 264.7 cells activated with LPS; RAW 264.7 cells, MTT, LPS 1 µg/mL, 24 h; mean ± SD, n = 3

## Task Which CC50 at 24 h reading was recorded for the molecule CC1(C)CCCC2(C)C(=O)C=C(CO)C3CC312 (stereo not shown) ?
## Result > 100 µM

## Task Proceed to C[C@H](O)[C@@H](C)OC(=O)C[C@@H]1OC(=O)c2c(O)cccc21
## Result > 100 µM

## Task Proceed to Cc1cc(=O)c2c(C)cc(O)cc2o1 [Compound 21, 2,5-dimethyl-7-hydroxychromone]
## Result 17.3 µM

## Task Proceed to COc1cc(O)c2c(=O)oc3c(c2c1)[C@@H](C)C[C@@H]3O
## Result > 100 µM
